- Method notes: yeast display, Sf9 membrane polyspecificity reagent, FACS + sequencing; frameworks hold sequencing errors
Quantity measured: polyreactivity (PSR sort gate)

>>> recorded_measurement("QFQLVESGGGLVQAGGRLRLSCAASRSTFVLYDMGWYRQAPGKERELVAAISRSGDSTYYADSVKGRYTISRDNAKNTVYLQMNSLKPEDTAVYYCAAKRRISTGMDYWGQGTQVTVSS")
"high polyreactivity"
>>> recorded_measurement("QVQLVESGGGLVQAGGSLRLSCAASGSIFTLYAMGWYRQAPGKERELVAAITWSGGSTYYADSVKGRFTISRDNAKNTVYLQMNSLKPEDTAVYFCAKDYLAGGPWEGHVEREYDYWGQGTQVTVSS")
"low polyreactivity"
>>> recorded_measurement("QVQLVESGGGLVQAGGSLRLSCAASGSIFENNVMGWYRQAPGKERELVAVISWNGGRTYYADSVKGRFTISRDNAKNTVYLQMNSLKPEDTAVYYCNAQGYFWSESIEYDYWGQGTQVTVSS")
"low polyreactivity"
>>> recorded_measurement("QVQLVESGGGLVQAGGSLRLSCAASGRIFRKNVMGWYRQAPGKERELVAAITTRGGSTYYADSVKGRFTISRDNAKNTVYLQMNSLKPEDTAVYYCATRVQWNSRYDYWGQGTQVTVSS")
"high polyreactivity"
>>> recorded_measurement("QVQLVESGGGLVQAGGSLRLSCAASGNIFVINAMGWYRQAPGKERELVAAISWSTANTYYADSVKGRFTISRDNAKNTVYLQLNSLKPEDTAVYYCAAVFRYYTYSGAVRYYYWGQGTQVTVSS")
"high polyreactivity"
>>> recorded_measurement("QVQLVESGGGLVQAGGSLRLSCAASGITFSHYAMGWYRQAPGKERELVAGITWSGGRTYYADSVKGRFTISRDNAKNTVYLQMNSLKPEDTAVYYCAPIHRTGYDMDYWGQGTQVTVSS")
"low polyreactivity"
>>> recorded_measurement("QVQLVESGGGLVQAGGSLRLSCAASGRIFYQNAMGWYRQAPGKERELVAGITRGGSTYYADSVKGRFTISRDNAKNTVYLQMNSLKPEETAVYYCAVAFWRTKWYDYWGQGTQVTVSS")
"low polyreactivity"
>>> recorded_measurement("QVQLQESGGVQAGGSLRLSCAASGYISRSDVKGWYRQAPGKERELVATINNGTITYYADSVKGRFTISRDNAKNTVYLQMNSLKPEDTAVHYCAVVQSDTDSLYYWGQGTQVTVSS")
"low polyreactivity"
>>> recorded_measurement("QVQLVESGGGLVQAGGSLRLSCAASGIYSYVMGWYRQAPGKERELVAAISGTGGRTYYADSVKGRFTISRDNAKNTVYLQMNSLKPEDTAVYYCAARGIYQPKTFDYWGQGTQVTVSS")
"high polyreactivity"
>>> recorded_measurement("QVQLVESGGGLVQAGGSLRLSCAASGITFHVYAMGWYRQAPGKEREFVASISWSGGSTYYADSVKGRFTISRDNAKNTVYLQMNSLKPEDTAVYYALLTVLSAVPYSVRYDYWGQGTQVTVSS")
"high polyreactivity"
>>> recorded_measurement("QVQLVESGGGLVQAGGSLRLSCAASGSTFYFNAMGWYRQAPGKERELVATIRSGDSTYYADSVKGRFTISSDNAKNTVYLQMNSLKPVDTAVYSCPGPLPYYGQYDYWGQGTQVTVSS")
"low polyreactivity"
